Recorded apparent KD of K4 kissing-loop reporter values for a group of sequences are listed next.
Test system: K4 kissing-loop RNA reporter;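 also: bound reporter read as fluorescence of individual clusters on recovered sequencing chips by microscopy, with normalized cluster intensities fitted with a binding model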
Assay: apparent KD of K4 kissing-loop reporter; higher = weaker reporter binding
Conditions: Eterna round: R107; input ligand: arginine 13.2 mM
readoutKind: apparent KD of K4 kissing-loop reporter (nM)

GGUAGCAUGGCGGCCGCCACUUCAUAUGGAGUGAUGUUCCAGCAUCUUAUAAGACUGAGGUGAGGAAGGACCGGGCCAUGCUACC	561
UAUACUAGACAAGAGAGAAUUCUCUCAAGAGAGGAUAUCCGAAUUCGGAGAAGGCUCGCUAAGUGAUGUUUGGAAUAGUCUAGAA [AK4 SS FMN A]	352
AGUGCACUGUCAGGAUAUAUACAGUGAUGUUGUGUAUGUCAGCAAGUCAAAGACUUGCUAUUCUGUGUAGAAGGGACUGUGUACA [Omei KL FMN B Exc A v1]	203

====

Test system: MS2 coat protein
Test: apparent KD of MS2 coat protein, switch ON state; designed switch direction (-1 OFF switch, 1 ON switch): 1; higher = weaker reporter binding
Conditions: FMN input: 0 or 200 uM; Eterna round: R93 (includes R88 designs)
Recorded apparent KD of MS2 coat protein values for a group of sequences are listed next.
readoutKind: apparent KD of MS2 coat protein (nM)

AAAAAACAUGAGGAUCACCCAUGUAGAAAUAUGGGAGGAUAUACAAAGACGAAAGUCAAAGUAGAAGGCCUAAAAA [77%, Mat - Mod of Eli, 2]	18.2
AAAAAACAUGAGGAUCACCCAUGUGAGAAUAUGGAAGGAUAUACAAAGACGAAAGUCAAAGUAGAAGGUCUAAAAG [Mat - Same State 1 - Eli mod - D90]	31.1
UAAUAAUAAACCAAGGAUAUGGAGUAAAGAACAUGAGGAUCACCCAUGUGUAGCGUGGAAUAGUACCAGAAGGUGGAGUGAAAUG [JR_SS002_Sub1003]	54.1
AAGAAACAUGAGGAUCACCCAUGUAAGAUAAACACAGGAUAUGCGAAAAUAAAUAAAUAAGCAGAAGGGUGAAAAG [Mat - Same State 1 - Tesla mod - 75]	19.9
AAGAAACAUGAGGAUCACCCAUGUAAGAUAAACACAGGAUAUGCGAAUAAAAUAAAUAAAGCAGAAGGGUGAAGAA [Mat - Same State 1 - Tesla mod - D150]	17.1
AUAAAACAUGAGGAUCACCCAUGUAGAAAUAAGGGAGGAUAUACAAAGACGAAAGUCAAAGUAGAAGGCUCAAAAG [76%, Meechl 5]	16.8

====

System: MS2 coat protein
Assay: apparent KD of MS2 coat protein; designed switch direction (-1 OFF switch, 1 ON switch): -1; higher = weaker reporter binding
Details: input ligand: none
Rule: apparent KD of MS2 coat protein of 50 nM or more gives TRUE; anything lower gives FALSE.

AAAUUAGCAAGUAGGUCCGACAUGAGGAUCACCCAUGUAAUCUAAAAUUACGCUGCACGAAAGUGCGCUCGUCUUAG [Sensor-V1 #12] (Eterna round: R97, puzzle: Sensor, turn-off variant 1)	TRUE
CUGAACCCGGUAGGAUAUAUUGUGGGCGGGCGUGGAACGACAUGAGGAUCACCCAUGUAAUUGAGGUAGAAGGGCCGAGAGGUU [Excl-NG2-LRO16] (Eterna round: R96, puzzle: Exclusion NG 2)	FALSE
AGUCGUAGACAGGAUAUGCGGCUAAUAAAUAAAGCAGAAGGGUCUACUUGAGGAUCACCCAAGUGGGCGGUUAA [jl-ex6-4.19 ViennaUCT mod] (Eterna round: R97, puzzle: Exclusion 6)	FALSE
AGUACCUGAGUACAAAGUAACAUGAGGAUCACCCAUGUAAAUGGGUGAGAACAAGCUCACCGUUCGUCUUAAAUAAA [JL turnoff v1 79] (Eterna round: R96, puzzle: Sensor v2, turn-off variant)	TRUE
UCUCGAAGGCAAGGAUAUCCUACAUUGUUCUGGCCCGGGCAUGCUACAUGAGGAUCACCCAUGUGGGAGAAGGUGCGCCACGGC [Design 29] (Eterna round: R96, puzzle: Exclusion NG 2)	FALSE
AGUUGGCGAGGAUAUACAUGAGGAUCACCCAUGUGAGAGAUACUAGUGAGGUCGAUUAGGAGAAGGCGCUGACA [Mat X3R4 m20] (Eterna round: R97, puzzle: Exclusion 3)	FALSE
AACAGUACAGGAUAUACAUGAGGAUCACCCAUGUGAGAUUUAAGUGGCGUACCACAAAGUAGAAGGGUACUGGA [JL Maslow Revisted mod 5] (Eterna round: R96, puzzle: Exclusion 3)	FALSE
CCCGAUGGAUAGGAUAUCCGGCAAGUAUGCUAUGGAGAAGGGUUCACAUGAGGAUCACCCAUGUGGGUUAAACG [Eternabot (L1) Solution 74] (Eterna round: R97, puzzle: Exclusion 6)	FALSE
GAUCAUGCAGGAUAUACAUGGACCAUGAAAACAUGGAUUUCACAUGAGGAUCACCCAUGUAGAAGGGCAUGAUC [Omei Ex2 A9] (Eterna round: R97, puzzle: Exclusion 2)	TRUE
